Tested on: PC3 PD-L1 overexpressing and PD-L1-mock tumors
Test: PET imaging in NMRI-nude mice bearing PC3 PD-L1 and PC3 mock tumors
Assay type: in vivo
Details: tracer only, 1-2 hour p.i., i.v., mice
MEASUREMENT_NAME: SUVmax PC3 PD-L1 tumor

Cc1c(COc2cc(OCc3cncc(S(C)(=O)=O)c3)c(CN[C@@H](CS(=O)(=O)O)C(=O)NCCS(=O)(=O)O)cc2Br)cccc1-c1cccc(OCc2cn(CCCN3CCN(C(=O)[C@H](CS(=O)(=O)O)NC(=O)CCCC(=O)NC45CNCCNCC(NC(=O)CCCC(=O)N[C@@H](CS(=O)(=O)O)C(=O)N6CCN(CCCn7cc(COc8cccc(-c9cccc(COc%10cc(OCc%11cncc(S(C)(=O)=O)c%11)c(CN[C@@H](CS(=O)(=O)O)C(=O)NCCS(=O)(=O)O)cc%10Br)c9C)c8C)nn7)CC6)(CNCCNC4)CNCCNC5)CC3)nn2)c1C.[64Cu+2] [[^64Cu]Cu-17] :: 0.49 ± 0.11

###

Assay: Proteolytic stability in human serum at 37 °C, radio-HPLC
Type: in vitro ADME
Details: 48 h
Description: For proteolytic stability studies, a solution of the radiolabeled compound was diluted with human serum in a ratio of 1:10. This mixture then underwent incubation at 37 °C while being shaken at 300 rpm. At each designated timepoint (1, 24 and 48 h), an aliquot was withdrawn and added to a detergent solution (water with 20% v/v EtOH, 5% v/v 5 mM aqueous EDTA, 0.5% v/v Triton X-100, 0.1% m/v saponin, 0.05% v/v 0.5 mM aqueous o-phenanthroline) in a ratio of 1:2 for precipitation of serum proteins. […]
MEASUREMENT_NAME: intact radioligand after incubation in human serum (%)

Cc1c(COc2cc(OCc3cncc(S(C)(=O)=O)c3)c(CN[C@@H](CS(=O)(=O)O)C(=O)NCCS(=O)(=O)O)cc2Br)cccc1-c1cccc(OCc2cn(CCCN3CCN(C(=O)[C@H](CS(=O)(=O)O)NC(=O)CCCC(=O)NC45CNCCNCC(N)(CNCCNC4)CNCCNC5)CC3)nn2)c1C.[64Cu+2] [[^64Cu]Cu-16] :: 89
Cc1c(COc2cc(OCc3cncc(S(C)(=O)=O)c3)c(CN[C@@H](CS(=O)(=O)O)C(=O)NCCS(=O)(=O)O)cc2Br)cccc1-c1cccc(OCc2cn(CCCN3CCN(C(=O)[C@H](CS(=O)(=O)O)NC(=O)CN4CCCN5CCN(CCCN(CC(=O)[O-])CC5)CC4)CC3)nn2)c1C.[64Cu+2] [[^64Cu]Cu-15] :: 88
Cc1c(COc2cc(OCc3cncc(S(C)(=O)=O)c3)c(CN[C@@H](CS(=O)(=O)O)C(=O)NCCS(=O)(=O)O)cc2Br)cccc1-c1cccc(OCc2cn(CCCN3CCN(C(=O)[C@H](CS(=O)(=O)O)NC(=O)CCCC(=O)NC45CNCCNCC(NC(=O)CCCC(=O)N[C@@H](CS(=O)(=O)O)C(=O)N6CCN(CCCn7cc(COc8cccc(-c9cccc(COc%10cc(OCc%11cncc(S(C)(=O)=O)c%11)c(CN[C@@H](CS(=O)(=O)O)C(=O)NCCS(=O)(=O)O)cc%10Br)c9C)c8C)nn7)CC6)(CNCCNC4)CNCCNC5)CC3)nn2)c1C.[64Cu+2] [[^64Cu]Cu-17] :: 86
